Every entry's value here was drawn from patent US7223888B2.

# measured.on: hMOR-1 (Homo sapiens, UniProt P35372)
# Construct: purchased Amersham Biosciences; host or cells: stably transfected CHO cells (membrane preparation)
# test.details: Opioid receptor competitive binding assay, MOR (3H-DAMGO)
# assay.conditions: Ki MOR, Table 3; 3H-DAMGO, hMOR-1 stably transfected into CHO cells; errors 95% confidence interval
pKi: −log10 of the molar value.
Give 1 (yes) when the value for pKi is at least 7. Give 0 (no) when it is less.

NC(=O)C(Cc1ccccc1)NC(=O)C(Cc1ccccc1)C(O)/C=C/CC(O)C(N)Cc1ccc(O)cc1 (single isomer, unassigned) [(S,S,S,R)-2] : 1 (yes)
NC(=O)C(Cc1ccccc1)NC(=O)C(Cc1ccccc1)C(O)/C=C\CC(O)C(N)Cc1ccc(O)cc1 (single isomer, unassigned) [(S,R,R,R)-9] : 0 (no)
NC(=O)[C@H](Cc1ccccc1)NC(=O)[C@H](Cc1ccccc1)NC(=O)[C@H]1CCCN1C(=O)[C@@H](N)Cc1ccc(O)cc1 [Compound 1, Endomorphin-2, reference compound] : 1 (yes)

Continue with the next molecule.
Exam item: decide whether the reported pKi for NC(Cc1ccc(O)cc1)C(O)C/C=C/C(O)C(Cc1ccccc1)C(=O)NCCc1ccccc1 (single isomer, unassigned) [(S,R,R,R)-10] is at least 7.
Marked response: 1 (yes)

====

The reader will find reported Ki KOR/Ki MOR values listed item by item below.
# measured.on: KOR (Cavia porcellus, UniProt P41144)
# Construct: from tissue; host or cells: guinea pig cerebellum preparation
# test.details: Opioid receptor competitive binding assay, KOR (3H-U-69,593)
# Design: species or system guinea pig
# assay.conditions: Table 13; selectivity for MOR versus KOR
// response body must contain only the number

Some solved cases for reference:
Cc1cc(O)cc(C)c1CC(N)C(O)C/C=C/C(O)C(Cc1ccccc1)C(=O)NC(Cc1ccccc1)C(N)=O (single isomer, unassigned) [(S,S,R,S)-25] : 41
Cc1cc(O)cc(C)c1CC(N)C(O)C/C=C/C(O)C(Cc1ccccc1)C(=O)NC(Cc1ccccc1)C(N)=O (single isomer, unassigned) [(S,R,S,R)-25] : 13
Cc1cc(O)cc(C)c1CC(N)C(O)C/C=C/C(O)C(Cc1ccccc1)C(=O)NCCc1ccccc1 (single isomer, unassigned) [(S,S,R,R)-26] : 170
Cc1cc(O)cc(C)c1CC(N)C(O)C/C=C/C(O)C(Cc1ccccc1)C(=O)NCCc1ccccc1 (single isomer, unassigned) [(S,S,S,R)-26] : 140
Cc1cc(O)cc(C)c1CC(N)C(O)C/C=C/C(O)C(Cc1ccccc1)C(=O)NC(Cc1ccccc1)C(N)=O (single isomer, unassigned) [(S,S,R,R)-25] : 49

For the compound Cc1cc(O)cc(C)c1CC(N)C(O)C/C=C/C(O)C(Cc1ccccc1)C(=O)NCCc1ccccc1 (single isomer, unassigned) [(S,R,S,R)-26] , the measured Ki KOR/Ki MOR on KOR (Cavia porcellus, UniProt P41144) was 210

For the compound Cc1cc(O)cc(C)c1CC(N)C(O)C/C=C/C(O)C(Cc1ccccc1)C(=O)NCCc1ccccc1 (single isomer, unassigned) [(S,S,R,S)-26] , the measured Ki KOR/Ki MOR on KOR (Cavia porcellus, UniProt P41144) was 94

For the compound Cc1cc(O)cc(C)c1CC(N)C(O)C/C=C/C(O)C(Cc1ccccc1)C(=O)NC(Cc1ccccc1)C(N)=O (single isomer, unassigned) [(S,S,S,R)-25] , the measured Ki KOR/Ki MOR on KOR (Cavia porcellus, UniProt P41144) was 130

For the compound Cc1cc(O)cc(C)c1CC(N)C(O)C/C=C/C(O)C(Cc1ccccc1)C(=O)NC(Cc1ccccc1)C(N)=O (single isomer, unassigned) [(S,R,R,R)-25] , the measured Ki KOR/Ki MOR on KOR (Cavia porcellus, UniProt P41144) was 16

For the compound Cc1cc(O)cc(C)c1CC(N)C(O)C/C=C/C(O)C(Cc1ccccc1)C(=O)NCCc1ccccc1 (single isomer, unassigned) [(S,R,R,R)-26] , the measured Ki KOR/Ki MOR on KOR (Cavia porcellus, UniProt P41144) was 96

For the compound Cc1cc(O)cc(C)c1CC(N)C(O)C/C=C/C(O)C(Cc1ccccc1)C(=O)OC(CO)Cc1ccccc1 [(S,S,S,R)-30] , the measured Ki KOR/Ki MOR on KOR (Cavia porcellus, UniProt P41144) was 190

====

# measured.on: hDOR-1 (Homo sapiens)
# Construct: purchased Amersham Biosciences; host or cells: stably transfected HEK-293 cells (membrane preparation)
# test.details: Opioid receptor competitive binding assay, DOR
# assay.conditions: Ki DOR, Table 6; footnote:, hDOR-1 stably transfected into HEK-293 cells; errors two standard deviations
The reader will find reported pKi values listed item by item below.
The scale used: pKi is minus the common logarithm of the concentration in molar units.

Some solved cases for reference:
NC(=O)C(Cc1ccccc1)NC(=O)C(Cc1ccccc1)C(O)/C=C\CC(O)C(N)Cc1ccc(O)cc1 (single isomer, unassigned) [(S,S,R,R)-9] : 5.37
NC(=O)C(Cc1ccccc1)NC(=O)C(Cc1ccccc1)C(O)/C=C\CC(O)C(N)Cc1ccc(O)cc1 (single isomer, unassigned) [(S,R,S,R)-9] : 5.00
C=CC(O)C(Cc1ccccc1)NC(=O)C(Cc1ccccc1)C(O)/C=C/CC(O)C(N)Cc1ccc(O)cc1 (single isomer, unassigned) [(S,S,S,R)-12] : 6.17
NC(=O)C(Cc1ccccc1)NC(=O)C(Cc1ccccc1)C(O)/C=C/CC(O)C(N)Cc1ccc(O)cc1 (single isomer, unassigned) [(S,S,S,R)-2] : 6.29

Measured pKi, NC(Cc1ccc(O)cc1)C(O)C/C=C/C(O)C(Cc1ccccc1)C(=O)NC(CO)Cc1ccccc1 (single isomer, unassigned) [(S,S,S,R)-11] : 5.96

Measured pKi, NC(Cc1ccc(O)cc1)C(O)C/C=C/C(O)C(Cc1ccccc1)C(=O)NCCc1ccccc1 (single isomer, unassigned) [(S,S,S,R)-10] : 5.44

====

The reader will find reported Ki values listed item by item below.
# measured.on: KOR (Cavia porcellus)
# Construct: from tissue; host or cells: guinea pig cerebellum preparation
# test.details: Opioid receptor competitive binding assay, KOR (3H-U-69,593)
# Design: species or system guinea pig
# assay.conditions: Ki KOR, Table 10; 3H-U-69,593, guinea pig cerebellum preparation; errors two standard deviations
Quick note: give the figure in nM, leave out the unit.

Cc1cc(O)cc(C)c1CC(N)C(O)C/C=C/C(O)C(Cc1ccccc1)C(=O)NC(Cc1ccccc1)C(N)=O (single isomer, unassigned) [(S,R,S,R)-25] : 15
Cc1cc(O)cc(C)c1CC(N)C(O)C/C=C/C(O)C(Cc1ccccc1)C(=O)NCCc1ccccc1 (single isomer, unassigned) [(S,S,R,S)-26] : 60
Cc1cc(O)cc(C)c1CC(N)C(O)C/C=C/C(O)C(Cc1ccccc1)C(=O)NC(Cc1ccccc1)C(N)=O (single isomer, unassigned) [(S,R,R,R)-25] : 25
Cc1cc(O)cc(C)c1CC(N)C(O)C/C=C/C(O)C(Cc1ccccc1)C(=O)NCCc1ccccc1 (single isomer, unassigned) [(S,R,R,R)-26] : 69
Cc1cc(O)cc(C)c1CC(N)C(O)C/C=C/C(O)C(Cc1ccccc1)C(=O)NCCc1ccccc1 (single isomer, unassigned) [(S,R,S,R)-26] : 51

Measured Ki, Cc1cc(O)cc(C)c1CC(N)C(O)C/C=C/C(O)C(Cc1ccccc1)C(=O)NC(CO)Cc1ccccc1 [(S,S,S,R)-27] : 69

Measured Ki, Cc1cc(O)cc(C)c1CC(N)C(O)C/C=C/C(O)C(Cc1ccccc1)C(=O)NC(Cc1ccccc1)C(N)=O (single isomer, unassigned) [(S,S,R,S)-25] : 50

Measured Ki, Cc1cc(O)cc(C)c1CC(N)C(O)C/C=C/C(O)C(Cc1ccccc1)C(=O)NC(Cc1ccccc1)C(N)=O (single isomer, unassigned) [(S,S,S,R)-25] : 22

Measured Ki, Cc1cc(O)cc(C)c1CC(N)C(O)C/C=C/C(O)C(Cc1ccccc1)C(=O)NCCc1ccccc1 (single isomer, unassigned) [(S,S,R,R)-26] : 64

Measured Ki, Cc1cc(O)cc(C)c1CC(N)C(O)C/C=C/C(O)C(Cc1ccccc1)C(=O)NCCc1ccccc1 (single isomer, unassigned) [(S,S,S,R)-26] : 42

Measured Ki, Cc1cc(O)cc(C)c1CC(N)C(O)C/C=C/C(O)C(Cc1ccccc1)C(=O)OC(CO)Cc1ccccc1 [(S,S,S,R)-30] : 85

Measured Ki, Cc1cc(O)cc(C)c1CC(N)C(O)C/C=C/C(O)C(Cc1ccccc1)C(=O)NC(Cc1ccccc1)C(N)=O (single isomer, unassigned) [(S,S,R,R)-25] : 21

====

# measured.on: hDOR-1 (Homo sapiens)
# Construct: purchased Amersham Biosciences; host or cells: stably transfected HEK-293 cells (membrane preparation)
# test.details: Opioid receptor competitive binding assay, DOR
# assay.conditions: Table 12; selectivity for MOR versus DOR (3H-DPDPE, hDOR-1)
Ki DOR/Ki MOR less than 30 is MET; Ki DOR/Ki MOR greater than or equal to 30 is NOT MET.

Exam item: Is it true that Ki DOR/Ki MOR reported for NC(Cc1ccc(O)cc1)C(O)C/C=C/C(O)C(Cc1ccccc1)C(=O)NCCc1ccccc1 (single isomer, unassigned) [(S,R,R,R)-10] is less than 30?
Marked response: NOT MET
